# Tested on: HUVEC
# TEST_NAME: Inhibition of cell invasion in HGF-stimulated HUVEC cells incubated for 48 hrs by Matrigel based analysis
# MEASUREMENT_SETUP: Homo sapiens
EXPERIMENTAL_ENDPOINT: pIC50
pIC50 field: float, defined as -log10 of concentration (mol/L).

Lab note: need pIC50 with HUVEC for entry OCCn1cc(-c2cnc3nnn(Cc4ccc5ncccc5c4)c3n2)cn1 , please look it up.
7.57

###

# Test system: HT-29
# TEST_NAME: Inhibition of cell invasion in HGF-stimulated human HT-29 cells over expressing c-Met incubated for 48 hrs by Matrigel based analysis
# MEASUREMENT_SETUP: HT-29, 48 h
EXPERIMENTAL_ENDPOINT: IC50 (nM)
Report only the number, with the unit nM understood.

Quick one: IC50 of OCCn1cc(-c2cnc3nnn(Cc4ccc5ncccc5c4)c3n2)cn1 ?
7

###

# Test system: HT-29
# TEST_NAME: Antiproliferative activity against human HT-29 cells over expressing c-Met assessed as reduction in cell viability after 48 to 72 hrs by MTT assay
pIC50: −log10 of the molar value.
EXPERIMENTAL_ENDPOINT: pIC50

Quick one: pIC50 of OCCn1cc(-c2cnc3nnn(Cc4ccc5ncccc5c4)c3n2)cn1 [PF-04217903] ?
< 5.00
